Target: Dimer of Gag-Pol polyprotein [489-587,Q496K] (Human immunodeficiency virus 1, UniProt P12497, Q496K)
Construct: 489-587
Assay: Protease Inhibition Assay
Conditions: pH 5.5; 30 °C
Below is a list of entries, each paired with its recorded IC50 value.
Respond numerically; units are nM and should not be typed.

Req: Any idea what IC50 was measured for CC(C)(c1ncc(-c2ccc(F)cc2)o1)N1CCN(C[C@@H](O)C[C@@H](Cc2nnc(-c3ccccc3)o2)C(=O)N[C@H]2c3ccccc3OC[C@H]2O)[C@H](C(=O)NCC(F)(F)F)C1 ?
Resp: 0.02

Req: Give the measured IC50 of COc1cncc(-c2cnc(C(C)(C)N3CCN(C[C@@H](O)C[C@@H](Cc4nnc(-c5ccccc5)o4)C(=O)N[C@H]4c5ccccc5OC[C@H]4O)[C@H](C(=O)NCC(F)(F)F)C3)o2)c1 .
Resp: 0.48

Req: # lookup: IC50 of O=C(N[C@H]1c2ccccc2OC[C@H]1O)[C@H](Cc1nnc(-c2ccccc2)o1)C[C@H](O)CN1CCN(Cc2ccc(-c3ccc(Cl)cc3)o2)C[C@H]1C(=O)NCC(F)(F)F
Resp: 0.019

Req: Would you mind telling me what IC50 value was observed for COc1cncc(-c2cnc(C(C)(C)N3CCN(C[C@@H](O)C[C@@H](Cc4nnc(C)o4)C(=O)N[C@H]4c5ccccc5OC[C@H]4O)[C@H](C(=O)NCC(F)(F)F)C3)o2)c1 ?
Resp: 0.4

Req: Please report the recorded IC50 for COc1cncc(-c2cnc(C(C)(C)N3CCN(C[C@@H](O)C[C@@H](Cc4nnco4)C(=O)N[C@H]4c5ccccc5OC[C@H]4O)[C@H](C(=O)NCC(F)(F)F)C3)o2)c1 .
Resp: 0.24

Req: Returns the measured IC50 for the input compound. Input: O=C(N[C@H]1c2ccccc2OC[C@H]1O)[C@H](Cc1nnco1)C[C@H](O)CN1CCN(Cc2ccc(-c3ccc(Cl)cc3)o2)C[C@H]1C(=O)NCC(F)(F)F
Resp: 0.015

Req: Given the entry Cc1nnc(C[C@H](C[C@H](O)CN2CCN(C(C)(C)c3ncc(-c4ccc(Cl)cc4)o3)C[C@H]2C(=O)NCC(F)(F)F)C(=O)N[C@H]2c3ccccc3OC[C@H]2O)o1 , report its measured IC50.
Resp: 0.016

Req: GET /values?readout=IC50&item= CCCc1nnc(C[C@H](C[C@H](O)CN2CCN(C(C)(C)c3ncc(-c4ccc(F)cc4)o3)C[C@H]2C(=O)NCC(F)(F)F)C(=O)N[C@H]2c3ccccc3OC[C@H]2O)o1
Resp: 0.016

###

Molecular target: Dimer of Gag-Pol polyprotein [489-587,Q496K] (Human immunodeficiency virus 1, UniProt P12497, Q496K)
Construct: 489-587
Test: Protease Inhibition Assay
Conditions: pH 5.5; 30 °C
VALUE_KIND: IC50 (nM)
Your answer should be a plain number; it is taken to be in nM.

CCCc1nnc(C[C@H](C[C@H](O)CN2CCN(C(C)(C)c3ncc(-c4cncc(OC)c4)o3)C[C@H]2C(=O)NCC(F)(F)F)C(=O)N[C@H]2c3ccccc3OC[C@H]2O)o1 :: 0.32
Cc1nnc(C[C@H](C[C@H](O)CN2CCN(C(C)(C)c3ncc(-c4ccc(F)cc4)o3)C[C@H]2C(=O)NCC(F)(F)F)C(=O)N[C@H]2c3ccccc3OC[C@H]2O)o1 :: 0.027

Req: What does the data say about its IC50? Entry: CC(C)(c1ncc(-c2ccc(F)cc2)o1)N1CCN(C[C@@H](O)C[C@@H](Cc2nnco2)C(=O)N[C@H]2c3ccccc3OC[C@H]2O)[C@H](C(=O)NCC(F)(F)F)C1
Resp: 0.024
